# Test system: Burkholderia thailandensis
# Assay text: Antimicrobial activity against isogenic amrAB-oprA/bpeAB-oprB double knockout Burkholderia thailandensis E264 measured after overnight incubation by alamarBlue assay
# Assay type: functional
Give measured MIC for each item. Keep answers brief.
Your answer should be a plain number; it is taken to be in µg/mL.

Burkholderia thailandensis / MIC / `C[C@@H](O)[C@H](N)C(=O)NS(=O)(=O)c1cccc(-c2ccc3c(N)ncnc3c2)c1` : value?
8

Try this compound next: `C[C@@H](O)[C@H](N)C(=O)NS(=O)(=O)c1ccc2ccc(-c3cc(N)ncn3)cc2c1`
4

Try this compound next: `C[C@@H](O)[C@H](N)C(=O)NS(=O)(=O)c1cccc(-c2ccc3c(N)nc(Cl)nc3c2)c1`
32

Try this compound next: `C[C@@H](O)[C@H](N)C(=O)NS(=O)(=O)/C=C/c1cccc(-c2cc(N)ncn2)c1`
32

Try this compound next: `C[C@@H](O)[C@H](N)C(=O)NS(=O)(=O)OC[C@@H]1O[C@H](n2cnc3c(N)ncnc32)[C@@H](O)[C@H]1O`
64

Try this compound next: `C[C@@H](O)[C@H](N)C(=O)NS(=O)(=O)c1cccc(-c2ccc3c(N)nc(N)nc3c2)c1`
4

Try this compound next: `C[C@@H](O)[C@H](N)C(=O)NS(=O)(=O)c1ccc2ccc(-c3ncnc4[nH]ccc34)cc2c1`
32

###

Give measured pKi for each item. Keep answers brief.
# Experimental system: Threonine--tRNA ligase (Yersinia pestis, UniProt Q8ZDW5)
# Sequence (Q8ZDW5 whole entry): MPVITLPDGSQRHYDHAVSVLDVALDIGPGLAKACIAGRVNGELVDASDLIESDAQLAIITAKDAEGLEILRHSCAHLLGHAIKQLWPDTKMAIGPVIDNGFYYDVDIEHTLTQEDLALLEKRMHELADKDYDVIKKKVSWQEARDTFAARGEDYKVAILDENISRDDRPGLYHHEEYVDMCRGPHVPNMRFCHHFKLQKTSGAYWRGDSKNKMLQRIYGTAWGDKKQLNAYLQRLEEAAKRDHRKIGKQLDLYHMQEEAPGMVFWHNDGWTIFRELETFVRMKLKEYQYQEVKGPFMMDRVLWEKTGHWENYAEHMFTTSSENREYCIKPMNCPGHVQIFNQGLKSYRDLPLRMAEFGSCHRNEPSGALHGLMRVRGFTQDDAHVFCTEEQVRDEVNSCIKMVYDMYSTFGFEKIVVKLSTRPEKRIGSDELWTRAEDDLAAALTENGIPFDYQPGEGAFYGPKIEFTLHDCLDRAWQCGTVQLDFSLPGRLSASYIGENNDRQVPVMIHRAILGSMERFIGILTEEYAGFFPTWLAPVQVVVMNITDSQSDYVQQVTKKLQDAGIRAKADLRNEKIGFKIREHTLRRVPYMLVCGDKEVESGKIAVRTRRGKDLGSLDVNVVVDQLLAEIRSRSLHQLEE
// pKi is dimensionless: -log10 of concentration (M)

For the compound `CC(C)[C@@H](O)[C@H](N)C(=O)NS(=O)(=O)/C=C/c1cccc(-c2cc(N)ncn2)c1` , what pKi is on record?
7.65

Try this compound next: `CC[C@@H](O)[C@H](N)C(=O)NS(=O)(=O)/C=C/c1cccc(-c2cc(N)ncn2)c1`
8.57

Try this compound next: `C[C@@H](O)[C@H](N)C(=O)NS(=O)(=O)c1ccc2ccc(-c3cc(N)ncn3)cc2c1`
8.70

Try this compound next: `C[C@@H](O)[C@H](N)C(=O)NS(=O)(=O)N1CCc2ccc(-c3ncnc4[nH]ccc34)cc2C1`
8.24

Try this compound next: `C[C@@H](O)[C@H](N)C(=O)NS(=O)(=O)c1cccc(-c2ccc3c(N)nccc3c2)c1`
6.94

Try this compound next: `Cc1n[nH]c2ccc(-c3cccc(S(=O)(=O)NC(=O)[C@@H](N)[C@@H](C)O)c3)cc12`
7.08

Try this compound next: `Cc1nc(N)c2ccc(-c3cccc(S(=O)(=O)NC(=O)[C@@H](N)[C@@H](C)O)c3)cc2n1`
8.03

Try this compound next: `C[C@@H](O)[C@H](N)C(=O)NS(=O)(=O)c1cccc(-c2ccc3[nH]ncc3c2)c1`
6.88

Try this compound next: `C[C@@H](O)[C@H](N)C(=O)NS(=O)(=O)c1cccc(-c2ccc3c(c2)CNC3=O)c1`
8.41

Try this compound next: `C[C@@H](O)[C@H](N)C(=O)NS(=O)(=O)c1cccc(-c2ccc3c(N)nc(Cl)cc3c2)c1`
7.60

Try this compound next: `C[C@@H](O)[C@H](N)C(=O)NS(=O)(=O)c1ccc2ccc(-c3ncnc4[nH]ccc34)cc2c1`
8.74

Try this compound next: `C[C@@H](O)[C@H](N)C(=O)NCc1cccc(-c2ccc3c(N)nc(Cl)nc3c2)c1`
6.36

Try this compound next: `C[C@@H](O)[C@H](N)C(=O)NS(=O)(=O)c1cccc(-c2ccc3c(N)nc(Cl)nc3c2)c1`
9.15

Try this compound next: `C[C@@H](O)[C@H](N)C(=O)NS(=O)(=O)c1cccc(-c2ccc3[nH]nc(Cl)c3c2)c1`
7.41

Try this compound next: `C[C@@H](O)[C@H](N)C(=O)NNc1cccc(-c2ccc3c(N)nc(Cl)nc3c2)c1`
7.15

Try this compound next: `C[C@@H](O)[C@H](N)C(=O)NS(=O)(=O)OC[C@@H]1O[C@H](n2cnc3c(N)ncnc32)[C@@H](O)[C@H]1O`
8.01
